B1: Far upstream element-binding protein 2, residues 142 to 214; numbered along this chain, Q92945 (parent)
chain: RTSMTEEYRVPDGMVGLIIGRGGEQINKIQQDSGCKVQISPDSGGLPERSVSLTGAPESVQKAKMMLDDIVSR

- Variants of: B1
- TEST_PROTOCOL: abundance fitness (aPCA) (normalised: wild type 0, dead -1); higher = more abundant; growth selection in yeast, the domain comes from the species named
- TEST_PARAMETERS: Homo sapiens
Lab note: anything with abundance fitness at or over -0.1 counts as class 1; the rest go in class 0.

* RTSMTEEYRVPDGMVGLIIGRGGEQINKIQQDSGCKVQQSPDSGGLPERSVSLTGAPESVQKAKMMLDDIVSR | class 0
* RTSMTEEYRVPDGMVGLIIGRGGEQINKIQQDSGCKVQISPDSGGLPERSVSLTGAPESSQKAKMMLDDIVSR | class 0
* RTSMTEEYRVPDGMVGLIIGRGGEQINKIQQDSGCKVQISPDSGGMPERSVSLTGAPESVQKAKMMLDDIVSR | class 1
* RTSMTEEYRVPDGMVGLIIGRGGEQINKIQQDSGCKVQISPDSGGLFERSVSLTGAPESVQKAKMMLDDIVSR | class 0
* RTSMTEEYRVPDGMVGLIIGRGGEQINKIQQDSGCKVQISWDSGGLPERSVSLTGAPESVQKAKMMLDDIVSR | class 0
* RTSMTEEYRVPDGMVGLIIGRGGEQINKIQQDSGCKVQISPDSGGLPERSVSLTGAPESVQKQKMMLDDIVSR | class 0
* RTSMTEEYRVPDGMVGLIIGRGGEQINKIQQDSGCKVQNSPDSGGLPERSVSLTGAPESVQKAKMMLDDIVSR | class 0
* RTSMTEEYRVPDGMVGLIIGRGGEQINKIQQDSGCKVQISPDSGGLPERSVSLGGAPESVQKAKMMLDDIVSR | class 0
* RTSMTEEYRVPDGMVGLIIGRGGEQINKIQQDSGCKVQISPDSGGLTERSVSLTGAPESVQKAKMMLDDIVSR | class 1
* RTSMTEEYRVPDGMVGLIIGRGGEQINKIQQDSGCKVQISPDSGELPERSVSLTGAPESVQKAKMMLDDIVSR | class 1
* RTSMTEEYRVPDGMVGLIIGRGGEQINKIQQDSGCKVQISPDSGGLPERSVSLMGAPESVQKAKMMLDDIVSR | class 0
* RTSMTEEYRVPDGMVGLIIGRGGEQINKIQQDSGCKVQISPDSGGLPERSVSLIGAPESVQKAKMMLDDIVSR | class 0
* RTSMTEEYRVPDGMVGLIIGRGGEQINKIQQDSGCKVQISPDSGGLPERSVSLTGAPESVQKAKMMLDMIVSR | class 0
* RTSMTEEYRVPDGMVGLIIGRGGEQINKIQQDSGCKVQISPDSGGLPERSVWLTGAPESVQKAKMMLDDIVSR | class 1
* RTSMTEEYRVPDGMVGLIIGFGGEQINKIQQDSGCKVQISPDSGGLPERSVSLTGAPESVQKAKMMLDDIVSR | class 0
* RTSMTEEYRVPDGMVGLIIGRGGEQINKIQQDMGCKVQISPDSGGLPERSVSLTGAPESVQKAKMMLDDIVSR | class 0
* RTSMTEEYRVPDGMVGLIIGRGGEQINKIQQDSGCKVQISPDSGGLPERKVSLTGAPESVQKAKMMLDDIVSR | class 1
* RTSMTEEYRVPDGMVGLIIGRGGEQINKIQQDSGCKVQISPDSGGLPERSDSLTGAPESVQKAKMMLDDIVSR | class 0
* RTSMTEEYRVPDGMVGLIIGRGGEQIKKIQQDSGCKVQISPDSGGLPERSVSLTGAPESVQKAKMMLDDIVSR | class 1
* RTSMTEEYRVPDGMVGLIIGRGGEQINKIQQDSGCKVQISPDSGGLPERSVSLTGAPESVQKAKMMLDDFVSR | class 0
* RTSMTEEYRVPDGMVGLIIGRGGEQINKIQQDSGCKVQISPDSGGLPERSVSLTGGPESVQKAKMMLDDIVSR | class 0
* RTSMTEEYRVPDGMVGLIIGRGGEQINKIQQDSGCKVQISPDSGGLPERSVSLTGAPESVQKAKMMLDDIVSG | class 1
* RTSMTEEYRVPDGMVGLIIGRGGEQINKIQQDSGCKVQISPDSGGLPERSVSLTGAPESVQKARMMLDDIVSR | class 1
* RTSMTEEYRVPDGMVGLIIGRGGEQINKIQQDSGCKVQISPDSGGLPERSVSLTGRPESVQKAKMMLDDIVSR | class 1
* RTSMTEEYRVPDGMVGLIIGRAGEQINKIQQDSGCKVQISPDSGGLPERSVSLTGAPESVQKAKMMLDDIVSR | class 0
* RTSMTEEYRVPDGMVGLIIGRGGEQINKIQQDSGCKVQISPDSGGLPERSVSLTGTPESVQKAKMMLDDIVSR | class 1
* RTSMTEEYRVPDGMVGLIIGRGGEQIWKIQQDSGCKVQISPDSGGLPERSVSLTGAPESVQKAKMMLDDIVSR | class 0
